biological target: human SGLT1 (Homo sapiens, UniProt P13866); construct: expressed in transfected cells; assay: SGLT1 in vitro assay: Na-dependent 14C-AMG uptake in CHO-K1 cells stably expressing human SGLT1; assay type: cell-based; conditions: @ 0.3 μM; CHO-K1 cells stably expressing human SGLT1; 14C-AMG uptake; read-out: SGLT1 % Inh @ 0.3 μM
Sequence (P13866 whole entry): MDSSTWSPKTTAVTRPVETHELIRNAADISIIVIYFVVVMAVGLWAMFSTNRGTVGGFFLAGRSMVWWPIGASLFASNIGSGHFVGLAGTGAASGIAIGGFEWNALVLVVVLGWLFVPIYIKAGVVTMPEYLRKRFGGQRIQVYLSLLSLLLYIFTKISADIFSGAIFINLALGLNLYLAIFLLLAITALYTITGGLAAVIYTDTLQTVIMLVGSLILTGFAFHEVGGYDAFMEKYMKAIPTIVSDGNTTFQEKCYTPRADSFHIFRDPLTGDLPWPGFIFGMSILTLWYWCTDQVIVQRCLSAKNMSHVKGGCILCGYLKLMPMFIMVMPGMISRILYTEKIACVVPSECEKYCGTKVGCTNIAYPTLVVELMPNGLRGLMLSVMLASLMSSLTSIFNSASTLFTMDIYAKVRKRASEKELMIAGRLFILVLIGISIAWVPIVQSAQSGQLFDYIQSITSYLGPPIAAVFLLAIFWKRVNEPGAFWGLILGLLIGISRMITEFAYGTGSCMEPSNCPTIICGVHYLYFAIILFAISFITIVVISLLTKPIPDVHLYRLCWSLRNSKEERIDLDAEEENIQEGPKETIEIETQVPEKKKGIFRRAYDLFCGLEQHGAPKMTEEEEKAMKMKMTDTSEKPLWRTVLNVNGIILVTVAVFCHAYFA
Below: a set of entries, each annotated with reported inhibition at 0.3 µM.
RESULT_TYPE: inhibition at 0.3 µM (%)

[[record]]
structure_string = "COc1cc(O)c([C@@H]2O[C@H](CO)C(F)(F)[C@H](O)[C@H]2O)cc1Cc1ccc2c(c1)CCO2"
observed_value = 40.9

[[record]]
structure_string = "CCc1ccc(Cc2cc([C@@H]3O[C@H](CO)C(F)(F)[C@H](O)[C@H]3O)c(O)cc2C)cc1"
observed_value = 64.4

[[record]]
structure_string = "COc1c([C@@H]2O[C@H](CO)C(F)(F)[C@H](O)[C@H]2O)cc(Cc2ccc3c(c2)OCCO3)c2c1CCO2"
observed_value = 44.3

[[record]]
structure_string = "CCc1cc(O)c([C@@H]2O[C@H](CO)C(F)(F)[C@H](O)[C@H]2O)cc1Cc1ccc(C2CC2)cc1"
observed_value = 84.4

[[record]]
structure_string = "Cc1ccc(Cc2cc([C@@H]3O[C@H](CO)C(F)(F)[C@H](O)[C@H]3O)c(O)cc2C)cc1F"
observed_value = 79.6

[[record]]
structure_string = "COc1cc(O)c([C@@H]2O[C@H](CO)C(F)(F)[C@H](O)[C@H]2O)cc1Cc1ccc(C2CC2)cc1"
observed_value = 81.1

[[record]]
structure_string = "COc1cccc(Cc2cc([C@@H]3O[C@H](CO)C(F)(F)[C@H](O)[C@H]3O)c(O)cc2Cl)c1"
observed_value = 71.8

[[record]]
structure_string = "Cc1ccc(Cc2cc([C@@H]3O[C@H](CO)C(F)(F)[C@H](O)[C@H]3O)c(O)cc2Cl)cc1"
observed_value = 86.4

[[record]]
structure_string = "Cc1cc(O)c([C@@H]2O[C@H](CO)C(F)(F)[C@H](O)[C@H]2O)cc1Cc1cc2cc(F)ccc2s1"
observed_value = 41.3

[[record]]
structure_string = "CCc1cc(OC)c([C@@H]2O[C@H](CO)C(F)(F)[C@H](O)[C@H]2O)cc1Cc1ccc(OC)cc1"
observed_value = 48.1

[[record]]
structure_string = "COc1cc(Cl)c(Cc2ccc3c(c2)OCCO3)cc1[C@@H]1O[C@H](CO)C(F)(F)[C@H](O)[C@H]1O"
observed_value = 36.5

[[record]]
structure_string = "OC[C@H]1O[C@@H](c2cc(Cc3ccc4c(c3)OCCO4)c(Cl)cc2O)[C@H](O)[C@@H](O)C1(F)F"
observed_value = 81.7

[[record]]
structure_string = "CCc1csc(Cc2cc([C@@H]3O[C@H](CO)C(F)(F)[C@H](O)[C@H]3O)c(O)cc2C)c1"
observed_value = 60.2

[[record]]
structure_string = "CCc1cc(O)c([C@@H]2O[C@H](CO)C(F)(F)[C@H](O)[C@H]2O)cc1Cc1ccc(OCF)cc1"
observed_value = 83

